target entity: VR1/TRPV1 receptor (Homo sapiens, UniProt Q8NER1)
Sequence (Q8NER1 whole entry): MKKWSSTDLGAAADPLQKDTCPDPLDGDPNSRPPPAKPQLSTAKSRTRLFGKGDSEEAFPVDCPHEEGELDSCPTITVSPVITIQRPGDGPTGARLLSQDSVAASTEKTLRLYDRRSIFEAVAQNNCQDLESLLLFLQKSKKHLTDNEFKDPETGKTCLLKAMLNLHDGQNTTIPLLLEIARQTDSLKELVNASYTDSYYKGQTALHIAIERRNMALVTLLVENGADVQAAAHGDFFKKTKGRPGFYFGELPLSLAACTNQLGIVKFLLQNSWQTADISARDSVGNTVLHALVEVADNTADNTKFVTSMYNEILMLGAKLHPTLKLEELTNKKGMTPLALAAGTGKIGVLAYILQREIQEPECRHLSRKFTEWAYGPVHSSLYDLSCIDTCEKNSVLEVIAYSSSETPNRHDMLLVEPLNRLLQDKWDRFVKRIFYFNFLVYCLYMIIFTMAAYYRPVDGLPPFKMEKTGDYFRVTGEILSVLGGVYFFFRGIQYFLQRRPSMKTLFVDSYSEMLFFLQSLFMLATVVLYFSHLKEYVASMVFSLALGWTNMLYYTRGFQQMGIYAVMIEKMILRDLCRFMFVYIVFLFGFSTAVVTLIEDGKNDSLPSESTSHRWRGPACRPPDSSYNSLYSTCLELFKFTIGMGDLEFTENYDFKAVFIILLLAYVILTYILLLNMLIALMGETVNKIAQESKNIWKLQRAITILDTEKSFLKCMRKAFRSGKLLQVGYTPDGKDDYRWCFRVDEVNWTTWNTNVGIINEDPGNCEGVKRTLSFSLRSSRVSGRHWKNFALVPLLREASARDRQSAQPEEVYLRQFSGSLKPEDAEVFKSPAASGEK
procedure details: IC50 (human) after pH stimulus
Type: cell-based
details: table 4
Grouping by measured IC50 is done with the following cut points: lowest (below 30 nM), middle (30 nM to below 90 nM), highest (90 nM or more)

compound	class label
COCC1CCN(c2nc(C(F)(F)F)ccc2CNC(=O)C(C)c2ccc(NS(C)(=O)=O)c(F)c2)CC1 (stereo not drawn)	middle
Cc1ccc(N2CCN(c3nc(C(F)(F)F)ccc3CNC(=O)C(C)c3ccc(NS(C)(=O)=O)c(F)c3)CC2)cc1 (stereo not drawn)	middle
CC1CCN(c2nc(C(F)(F)F)ccc2CNC(=S)C(C)c2ccc(NS(C)(=O)=O)c(F)c2)CC1 (stereo not drawn)	highest
CC(C(=O)NCc1ccc(C(F)(F)F)nc1OCc1ccccc1)c1ccc(NS(C)(=O)=O)c(F)c1 (stereo not drawn)	lowest
CC(C(=O)NCc1ccc(C(F)(F)F)nc1N1CCC(OC(=O)C(C)(C)C)CC1)c1ccc(NS(C)(=O)=O)c(F)c1 (stereo not drawn)	middle
CC1CC(C)CN(c2nc(C(F)(F)F)ccc2CNC(=O)C(C)c2ccc(NS(C)(=O)=O)c(F)c2)C1 (stereo not drawn)	lowest
CC(C)CCCc1nc(C(F)(F)F)ccc1CNC(=O)C(C)c1ccc(NS(C)(=O)=O)c(F)c1 (stereo not drawn)	lowest
COc1cccc(COc2nc(C(F)(F)F)ccc2CNC(=O)C(C)c2ccc(NS(C)(=O)=O)c(F)c2)c1 (stereo not drawn)	middle
CC(C(=O)NCc1ccc(C(F)(F)F)nc1OCc1ccc(C(C)(C)C)cc1)c1ccc(NS(C)(=O)=O)c(F)c1 (stereo not drawn)	highest
CC(C(=O)NCc1ccc(C(F)(F)F)nc1NC1CCCCC1)c1ccc(NS(C)(=O)=O)c(F)c1 (stereo not drawn)	highest
CC(C(=O)NCc1ccc(C(F)(F)F)cc1N1CCCCCC1)c1ccc(NS(C)(=O)=O)c(F)c1 (stereo not drawn)	middle
CC(C(=O)NCc1ccc(C(F)(F)F)cc1F)c1ccc(NS(C)(=O)=O)c(F)c1 (stereo not drawn)	highest
CC(C(=O)NCc1ccc(C(F)(F)F)cc1N1CCN(c2ccccc2)CC1)c1ccc(NS(C)(=O)=O)c(F)c1 (stereo not drawn)	middle
CCCCN(C)c1nc(C(F)(F)F)ccc1CNC(=O)C(C)c1ccc(NS(C)(=O)=O)c(F)c1 (stereo not drawn)	lowest
